Test: in vivo
Assay Context: rat, in vivo, iv, 10 mg/kg, Terminal half-life, tofacitinib 10 mg/kg intravenous; CON (control) rats

{"Query Smiles": "C[C@@H]1CCN(C(=O)CC#N)C[C@@H]1N(C)c1ncnc2[nH]ccc12", "half-life / min": 35.4}

---

Test: in vivo
Assay Context: rat, in vivo, iv, 10 mg/kg, CL, tofacitinib 10 mg/kg intravenous; LC rats
Method: Blood collection was performed at 0, 1, 5, 15, 30, 45, 60, 90, 120, 180, 240, 360, 480, 600, and 720 minutes for intravenous administration of tofacitinib, and at 0, 5, 15, 30, 45, 60, 90, 120, 180, 240, 360, 480, 600, and 720 minutes for oral administration to quantify concentrations of tofacitinib in the plasma. Then, urine was collected for 24 hours to analyze the concentration of tofacitinib excreted in urine as well.
Quantity Name: clearance

{"Compound": "C[C@@H]1CCN(C(=O)CC#N)C[C@@H]1N(C)c1ncnc2[nH]ccc12 [tofacitinib]", "Quantity Name": "clearance", "Result": "11 mL/min/kg"}
